# system-tested: T1, TRBC1 peptide (biotinylated) (human, also: biotinylated (site not given here))
# T1 construct: In the monoclonal screen: biotinylated, 0.5 ug/ml on neutravidin-coated plates; In the polyclonal phage ELISA also presented as BSA or OA conjugate of the C-terminal-cysteine form; also called Bio-TRBC1; biotinylated TRBC1
# T1 peptide: VLEDLNKVFPPEVAV
# measurement-protocol: TRF assay, scFv on biotin-peptide/neutravidin plate
No end group written: not given here.
Consider the following binders and their measured TRBC1 binding readings.
parameter: TRBC1 binding (TRF units)

CP_01_D10 (scFv, not shown: small tags and cut ends, scFv from pSANG10-3F (His6, tri-FLAG), culture supernatant) scFv: QVQLVESGGGLVQPGRSLRLSCAASGFTFSSYAMHWVRQAPGKGLEWVAVISYDGSSKYYADSVKGRFTISRDNSKNTLYLQMNSLRAEDTAVYYCAKGGGSFGAFDIWGQGTLVTVSSGGGGSGGGGSGGGASDIQMTQSPSSLSASVGDRVTITCRASQSISRYLNWYQQKPGKAPNLLIYAASSLQSGVPSRFSGSGSGTDFTLTISSLQPEDFATYYCQQYNSYPLTFGGGTKLEIKRTAAA = 371000
CP_01_F02 (scFv, not shown: small tags and cut ends, scFv from pSANG10-3F (His6, tri-FLAG), culture supernatant) scFv: QVQLVESGGGVVQPGRPLRLSCAASGFTFSSYAMHWVRQAPGKGLEWVAVISYDGSNKYYADSVKGRFTISRDNSKNTLYLQMNSLRAEDTAVYYCARAGYSYADYWGQGTMVTVSSGGGGSGGGGSGGGASDIQMTQSPSSLSASVGDRVTITCRASQGIRNDLGWYQQKPGKAPKRLIYAASSLQSGVPSRFSGSGSGTEFTLTISSLQPEDFATYYCLQHNSYPLTFGGGTKVDIKRTAAA = 302000
CP_01_E09 (scFv, not shown: small tags and cut ends, scFv from pSANG10-3F (His6, tri-FLAG), culture supernatant) scFv: QVQLVESGGGVVQPGRSLRLSCAASGFTFSSYAMHWVRQAPGKGLEWVAVISYDGSNKYYADSVKGRFTISRDNSKNTLYLQMNSLRAEDTAVYYCARAHNSSSWSFDYWGQGTLVTVSSGGGGSGGGGSGGGASDIQMTQSPSSLSASVGDRVTITCRASQSISSYLNWYQQKPGKAPKLLIYDASNLETGVPSRFSGSGSGTDFTFTISSLQPEDIATYYCQQYDNLPLTFGGGTKVDIKRTAAA = 403000
